Test system: Hsp70
Protocol Text: Hsp70 levels by denaturing immunoprecipitation of [3H]-leucine radiolabeled HepG2 cells
Type: cell-based, human
Measurement Parameters: HepG2, 4 hours pre-treatment; ALLN, ALLM 40 μg/ml; leupeptin, pepstatin A 50 μg/ml; E-64d 25 μg/ml; PMSF 1 mM; aprotinin 100 KIU/ml; Benz 1 mM; CIP 200 μM
Square brackets hold non-standard residues; d marks the D form. Peptide text beside a SMILES is read from it. * marks the point of attachment. Sta = CC(C)C[C@H](N)[C@@H](O)CC(=O)O; Isovaleryl = CC(C)CC(=O)*; Nle = CCCC[C@H](N)C(=O)O
Assay Metric: Induction of Hsp70 by protease inhibitors

>  <Compound>
CC(C)CC(=O)N[C@H](C(=O)N[C@H](C(=O)N[C@@H](CC(C)C)[C@@H](O)CC(=O)N[C@@H](C)C(=O)N[C@@H](CC(C)C)[C@@H](O)CC(=O)O)C(C)C)C(C)C [pepstatin] (Isovaleryl-VV[Sta]A[Sta]-OH)

>  <Value Observed>
No induction

$$$$
>  <Compound>
CSCC[C@@H](C=O)NC(=O)[C@H](CC(C)C)NC(=O)[C@H](CC(C)C)NC(C)=O [ALLM, N-acetyl-leucyl-leucyl-methioninal] (Ac-Leu-Leu-Met-aldehyde)

>  <Value Observed>
significantly induce

$$$$
>  <Compound>
O=S(=O)(F)Cc1ccccc1 [PMSF, phenylmethylsulfonyl fluoride]

>  <Value Observed>
No induction

$$$$
>  <Compound>
CCCC[C@@H](C=O)NC(=O)[C@H](CC(C)C)NC(=O)[C@H](CC(C)C)NC(C)=O [ALLN, N-acetyl-leucyl-leucyl-norleucinal] (Ac-Leu-Leu-[Nle]-aldehyde)

>  <Value Observed>
significantly induce

$$$$
